# EXPERIMENTAL SYSTEM: Vascular endothelial growth factor receptor 2 (Homo sapiens, UniProt P35968)
# Sequence (P35968 whole entry): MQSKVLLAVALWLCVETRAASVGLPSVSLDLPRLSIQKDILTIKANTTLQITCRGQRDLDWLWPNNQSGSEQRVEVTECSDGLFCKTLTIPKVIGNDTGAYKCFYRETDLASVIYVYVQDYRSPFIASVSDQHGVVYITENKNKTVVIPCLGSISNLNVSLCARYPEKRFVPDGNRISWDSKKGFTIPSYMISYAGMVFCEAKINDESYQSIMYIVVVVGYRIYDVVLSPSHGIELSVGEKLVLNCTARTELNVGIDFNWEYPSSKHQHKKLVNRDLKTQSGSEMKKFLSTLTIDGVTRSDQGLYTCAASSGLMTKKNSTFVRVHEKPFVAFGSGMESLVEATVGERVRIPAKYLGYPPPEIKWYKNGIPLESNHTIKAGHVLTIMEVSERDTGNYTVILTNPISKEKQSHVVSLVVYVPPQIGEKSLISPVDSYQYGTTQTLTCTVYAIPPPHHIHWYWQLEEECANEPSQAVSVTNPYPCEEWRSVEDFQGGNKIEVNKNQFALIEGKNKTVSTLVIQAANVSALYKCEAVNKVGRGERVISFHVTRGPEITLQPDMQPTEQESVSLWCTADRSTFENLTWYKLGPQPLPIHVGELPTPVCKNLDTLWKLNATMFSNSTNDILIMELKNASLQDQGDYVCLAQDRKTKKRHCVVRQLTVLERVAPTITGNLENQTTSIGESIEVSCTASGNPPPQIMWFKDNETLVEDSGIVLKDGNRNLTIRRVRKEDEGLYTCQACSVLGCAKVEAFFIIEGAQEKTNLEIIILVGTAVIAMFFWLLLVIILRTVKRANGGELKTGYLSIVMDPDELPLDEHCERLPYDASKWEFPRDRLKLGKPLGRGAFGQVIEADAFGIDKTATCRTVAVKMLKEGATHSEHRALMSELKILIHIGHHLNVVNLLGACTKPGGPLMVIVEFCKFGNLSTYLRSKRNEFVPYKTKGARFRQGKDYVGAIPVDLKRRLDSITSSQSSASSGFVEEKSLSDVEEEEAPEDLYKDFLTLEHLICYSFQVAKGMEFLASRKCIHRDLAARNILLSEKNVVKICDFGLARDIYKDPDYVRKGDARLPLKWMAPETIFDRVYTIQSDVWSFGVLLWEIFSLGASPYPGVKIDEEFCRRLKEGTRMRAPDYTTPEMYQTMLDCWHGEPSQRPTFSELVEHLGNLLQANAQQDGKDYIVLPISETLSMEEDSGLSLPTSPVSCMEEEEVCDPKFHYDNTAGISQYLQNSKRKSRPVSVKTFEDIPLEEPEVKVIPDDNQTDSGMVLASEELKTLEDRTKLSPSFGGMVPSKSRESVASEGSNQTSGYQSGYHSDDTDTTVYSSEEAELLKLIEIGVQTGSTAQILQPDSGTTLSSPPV
# EXPERIMENT NOTES: Inhibition of KDR using 1 mM ATP by HTRF assay
pIC50: −log10 of the molar value.
List of pIC50 values.
OBSERVABLE: pIC50

[
  {
    "MOLECULE": "CNC(=O)/C=C/c1cnc(N)c2c(-c3ccc(NC(=O)Nc4cccc(C)c4)cc3)csc12",
    "EXPERIMENTAL SYSTEM": "Vascular endothelial growth factor receptor 2 (Homo sapiens, UniProt P35968)",
    "TEST RESULT": 8.22
  },
  {
    "MOLECULE": "CN1CCC(n2cc(-c3cnc(N)c4c(-c5ccc(NC(=O)Nc6cccc(F)c6)cc5)csc34)cn2)C1=O (stereo not given)",
    "EXPERIMENTAL SYSTEM": "Vascular endothelial growth factor receptor 2 (Homo sapiens, UniProt P35968)",
    "TEST RESULT": 8.22
  },
  {
    "MOLECULE": "Cc1cccc(NC(=O)Nc2ccc(-c3csc4c(-c5cc[nH]c5)cnc(N)c34)cc2)c1",
    "EXPERIMENTAL SYSTEM": "Vascular endothelial growth factor receptor 2 (Homo sapiens, UniProt P35968)",
    "TEST RESULT": 8.40
  },
  {
    "MOLECULE": "Cn1cc(-c2cnc(N)c3c(-c4ccc(NC(=O)Nc5ccc(OC(F)(F)F)cc5)cc4)csc23)cn1",
    "EXPERIMENTAL SYSTEM": "Vascular endothelial growth factor receptor 2 (Homo sapiens, UniProt P35968)",
    "TEST RESULT": 8.52
  },
  {
    "MOLECULE": "Nc1ncc(-c2cnn(CCCN3CC[C@@H](O)C3)c2)c2scc(-c3ccc(NC(=O)Nc4cccc(F)c4)cc3)c12",
    "EXPERIMENTAL SYSTEM": "Vascular endothelial growth factor receptor 2 (Homo sapiens, UniProt P35968)",
    "TEST RESULT": 8.70
  },
  {
    "MOLECULE": "Cn1cc(-c2cnc(N)c3c(-c4ccc(NC(=O)Nc5ccccc5)cc4)csc23)cn1",
    "EXPERIMENTAL SYSTEM": "Vascular endothelial growth factor receptor 2 (Homo sapiens, UniProt P35968)",
    "TEST RESULT": 8.52
  },
  {
    "MOLECULE": "Cn1cc(-c2cnc(N)c3c(-c4ccc(NC(=O)Nc5ccc(Cl)cc5)cc4)csc23)cn1",
    "EXPERIMENTAL SYSTEM": "Vascular endothelial growth factor receptor 2 (Homo sapiens, UniProt P35968)",
    "TEST RESULT": 8.10
  },
  {
    "MOLECULE": "Cc1cccc(NC(=O)Nc2ccc(-c3csc4c(-c5cc[nH]n5)cnc(N)c34)cc2)c1",
    "EXPERIMENTAL SYSTEM": "Vascular endothelial growth factor receptor 2 (Homo sapiens, UniProt P35968)",
    "TEST RESULT": 8.22
  },
  {
    "MOLECULE": "CS(=O)(=O)CCn1cc(-c2cnc(N)c3c(-c4ccc(NC(=O)Nc5cccc(F)c5)cc4)csc23)cn1",
    "EXPERIMENTAL SYSTEM": "Vascular endothelial growth factor receptor 2 (Homo sapiens, UniProt P35968)",
    "TEST RESULT": 9.00
  },
  {
    "MOLECULE": "COc1ccc(NC(=O)Nc2ccc(-c3csc4c(-c5cnn(C)c5)cnc(N)c34)cc2)cc1",
    "EXPERIMENTAL SYSTEM": "Vascular endothelial growth factor receptor 2 (Homo sapiens, UniProt P35968)",
    "TEST RESULT": 8.22
  },
  {
    "MOLECULE": "Cn1cc(-c2cnc(N)c3c(-c4ccc(NC(=O)Nc5cccc(C(N)=O)c5)cc4)csc23)cn1",
    "EXPERIMENTAL SYSTEM": "Vascular endothelial growth factor receptor 2 (Homo sapiens, UniProt P35968)",
    "TEST RESULT": 8.70
  },
  {
    "MOLECULE": "Cn1cc(-c2cnc(N)c3c(-c4ccc(NC(=O)Nc5ccccc5F)cc4)csc23)cn1",
    "EXPERIMENTAL SYSTEM": "Vascular endothelial growth factor receptor 2 (Homo sapiens, UniProt P35968)",
    "TEST RESULT": 8.52
  },
  {
    "MOLECULE": "Cn1cc(-c2cnc(N)c3c(-c4ccc(NC(=O)Nc5cccc(Cl)c5)cc4)csc23)cn1",
    "EXPERIMENTAL SYSTEM": "Vascular endothelial growth factor receptor 2 (Homo sapiens, UniProt P35968)",
    "TEST RESULT": 8.15
  },
  {
    "MOLECULE": "COc1ccccc1NC(=O)Nc1ccc(-c2csc3c(-c4cnn(C)c4)cnc(N)c23)cc1",
    "EXPERIMENTAL SYSTEM": "Vascular endothelial growth factor receptor 2 (Homo sapiens, UniProt P35968)",
    "TEST RESULT": 8.22
  },
  {
    "MOLECULE": "CC(C)CCn1cc(-c2cnc(N)c3c(-c4ccc(NC(=O)Nc5cccc(F)c5)cc4)csc23)cn1",
    "EXPERIMENTAL SYSTEM": "Vascular endothelial growth factor receptor 2 (Homo sapiens, UniProt P35968)",
    "TEST RESULT": 7.60
  },
  {
    "MOLECULE": "CC(C)Cn1cc(-c2cnc(N)c3c(-c4ccc(NC(=O)Nc5cccc(F)c5)cc4)csc23)cn1",
    "EXPERIMENTAL SYSTEM": "Vascular endothelial growth factor receptor 2 (Homo sapiens, UniProt P35968)",
    "TEST RESULT": 7.60
  },
  {
    "MOLECULE": "Cc1cccc(NC(=O)Nc2ccc(-c3csc4c(-c5ccoc5)cnc(N)c34)cc2)c1",
    "EXPERIMENTAL SYSTEM": "Vascular endothelial growth factor receptor 2 (Homo sapiens, UniProt P35968)",
    "TEST RESULT": 8.10
  },
  {
    "MOLECULE": "Nc1ncc(-c2cnn(CCN3CCCCC3)c2)c2scc(-c3ccc(NC(=O)Nc4cccc(F)c4)cc3)c12",
    "EXPERIMENTAL SYSTEM": "Vascular endothelial growth factor receptor 2 (Homo sapiens, UniProt P35968)",
    "TEST RESULT": 8.40
  },
  {
    "MOLECULE": "Cc1ccccc1NC(=O)Nc1ccc(-c2csc3c(-c4cnn(C)c4)cnc(N)c23)cc1",
    "EXPERIMENTAL SYSTEM": "Vascular endothelial growth factor receptor 2 (Homo sapiens, UniProt P35968)",
    "TEST RESULT": 8.70
  },
  {
    "MOLECULE": "Cc1cccc(NC(=O)Nc2ccc(-c3csc4c(-c5ccsc5)cnc(N)c34)cc2)c1",
    "EXPERIMENTAL SYSTEM": "Vascular endothelial growth factor receptor 2 (Homo sapiens, UniProt P35968)",
    "TEST RESULT": 8.05
  }
]
